- Tested on: MDA-MB-231
- testSummary: NCI tumour cell line growth inhibition, 48 h
Calls of active or inactive are those of the source. No stated cut-off is given here; in the data, active = GI50 up to about 1.1 µM and inactive = higher.
Task for the reader: assign each of the following compounds its reported GI50.

Q. Which GI50 reading was recorded for the compound CC(C)=CCc1c(O)c(CC=C(C)C)c2oc(-c3ccc(O)cc3O)c(CC=C(C)C)c(=O)c2c1O ?
A. 12.6 µM (inactive)

Q. Which GI50 reading was recorded for the compound Cc1cccc(NC(=S)N/N=C2\C(=O)Nc3ccccc32)c1 ?
A. > 100 µM (inactive)

Q. Which GI50 reading was recorded for the compound COc1cc(NCc2ccc3oc(=O)c(-c4ccccc4)nc3c2)cc(OC)c1OC ?
A. > 10 µM (inactive)

Q. Which GI50 reading was recorded for the compound [N-]=[N+]=C1N=CN=C1c1nc[nH]n1 ?
A. 29 µM (inactive)

Q. Which GI50 reading was recorded for the compound COC(=O)/C=C1/OC(c2ccccc2)=CC1=O ?
A. 17 µM (inactive)

Q. Which GI50 reading was recorded for the compound O=c1c2ccccc2n2n1Cc1ccccc1C2 ?
A. > 100 µM (inactive)

Data provenance: ChEMBL document CHEMBL1201862
